# System Under Test: Solute carrier family 22 member 6 (Rattus norvegicus)
# Sequence (O35956 whole entry): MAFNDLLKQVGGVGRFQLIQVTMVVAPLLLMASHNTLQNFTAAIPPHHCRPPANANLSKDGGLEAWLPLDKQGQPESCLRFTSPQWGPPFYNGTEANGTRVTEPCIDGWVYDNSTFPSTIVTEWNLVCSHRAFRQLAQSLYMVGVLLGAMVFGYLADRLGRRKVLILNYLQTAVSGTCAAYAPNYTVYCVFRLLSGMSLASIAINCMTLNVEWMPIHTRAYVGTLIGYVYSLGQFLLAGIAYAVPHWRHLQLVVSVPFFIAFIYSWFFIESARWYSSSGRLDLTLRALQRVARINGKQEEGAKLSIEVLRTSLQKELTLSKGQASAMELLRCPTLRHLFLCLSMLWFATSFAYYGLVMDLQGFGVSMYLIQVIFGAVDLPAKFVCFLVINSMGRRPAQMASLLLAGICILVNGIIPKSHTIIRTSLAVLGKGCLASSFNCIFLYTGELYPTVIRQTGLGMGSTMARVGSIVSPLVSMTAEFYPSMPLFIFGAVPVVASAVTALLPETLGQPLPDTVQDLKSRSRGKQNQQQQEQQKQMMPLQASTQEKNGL
# Procedure Summary: TP_TRANSPORTER: inhibition of PAH uptake in Xenopus laevis oocytes
Metric: Ki (mM)
One number for each entry, in mM.

Query block: Please look up its Ki: CC1=C(C(=O)O)N2C(=O)[C@@H](NC(=O)[C@H](N)c3ccccc3)[C@H]2SC1 [CEPHALEXIN ANHYDROUS]
Result block: 2.31
